This collection of values is drawn from patent US10196401B2.

assayed-target: UniProtKB Q12879
Sequence (Q12879 23-1464, species assumed, other chains not shown): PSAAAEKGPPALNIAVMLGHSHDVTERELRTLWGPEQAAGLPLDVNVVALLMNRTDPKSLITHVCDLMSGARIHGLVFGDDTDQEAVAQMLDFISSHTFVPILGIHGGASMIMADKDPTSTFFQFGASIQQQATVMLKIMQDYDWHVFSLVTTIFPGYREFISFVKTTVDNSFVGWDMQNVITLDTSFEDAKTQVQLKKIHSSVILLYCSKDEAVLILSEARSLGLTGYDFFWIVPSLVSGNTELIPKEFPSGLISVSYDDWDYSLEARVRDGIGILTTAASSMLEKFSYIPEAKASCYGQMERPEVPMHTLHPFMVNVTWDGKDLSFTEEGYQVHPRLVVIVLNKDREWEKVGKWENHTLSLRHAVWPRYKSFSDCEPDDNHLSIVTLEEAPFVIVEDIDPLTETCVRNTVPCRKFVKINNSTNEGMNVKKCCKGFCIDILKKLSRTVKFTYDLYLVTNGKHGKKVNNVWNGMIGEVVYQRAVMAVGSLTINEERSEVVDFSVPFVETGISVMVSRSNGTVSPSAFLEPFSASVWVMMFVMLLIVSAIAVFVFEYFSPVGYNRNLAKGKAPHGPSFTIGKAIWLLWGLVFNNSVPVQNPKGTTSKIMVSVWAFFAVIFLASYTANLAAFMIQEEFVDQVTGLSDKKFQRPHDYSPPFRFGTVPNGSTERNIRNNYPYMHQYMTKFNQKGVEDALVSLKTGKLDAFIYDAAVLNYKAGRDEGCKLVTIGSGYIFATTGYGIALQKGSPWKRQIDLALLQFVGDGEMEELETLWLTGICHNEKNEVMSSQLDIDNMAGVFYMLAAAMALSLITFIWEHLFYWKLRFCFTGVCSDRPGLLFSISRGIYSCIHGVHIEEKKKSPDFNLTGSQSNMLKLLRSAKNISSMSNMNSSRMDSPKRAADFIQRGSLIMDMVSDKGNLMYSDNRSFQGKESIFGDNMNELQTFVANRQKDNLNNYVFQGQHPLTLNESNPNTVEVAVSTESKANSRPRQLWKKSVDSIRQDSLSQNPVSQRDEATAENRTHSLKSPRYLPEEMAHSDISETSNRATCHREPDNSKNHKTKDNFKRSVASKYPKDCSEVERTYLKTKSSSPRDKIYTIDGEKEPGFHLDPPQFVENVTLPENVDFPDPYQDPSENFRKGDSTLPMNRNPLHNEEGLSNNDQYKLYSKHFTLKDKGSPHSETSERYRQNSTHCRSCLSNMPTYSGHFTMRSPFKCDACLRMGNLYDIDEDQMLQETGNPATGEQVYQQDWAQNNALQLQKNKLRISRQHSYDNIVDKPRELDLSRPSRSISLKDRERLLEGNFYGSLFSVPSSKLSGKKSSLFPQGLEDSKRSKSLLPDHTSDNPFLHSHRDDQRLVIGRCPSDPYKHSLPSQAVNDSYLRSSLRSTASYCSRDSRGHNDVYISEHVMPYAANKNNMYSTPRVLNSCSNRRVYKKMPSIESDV
method-notes: Potentiation of [3H]MK-801 binding, NMDAR2A
Parameters: species or system rat
condition-details: NMDAR2A binding profile; relative to 1 mM glycine
endpoint: % 1 mM Glycine (%)

{"compound": "C[C@@H](O)[C@@H](C(N)=O)N1C[C@]2(CCCN2C(=O)OC(C)(C)C)C1=O [Compound W]", "endpoint": "% 1 mM Glycine", "test-value": 18.33}
{"compound": "CC(C)CN1CCC[C@@]12CN([C@H](C(N)=O)[C@@H](C)O)C2=O [Compound B]", "endpoint": "% 1 mM Glycine", "test-value": 24.48}
{"compound": "CC(C)C(=O)N1CCC[C@@]12CN([C@H](C(N)=O)[C@@H](C)O)C2=O [Compound Z]", "endpoint": "% 1 mM Glycine", "test-value": 42.5}
{"compound": "CC(C)C(=O)N1CCC[C@]12CN([C@H](C(N)=O)[C@@H](C)O)C2=O [Compound Y]", "endpoint": "% 1 mM Glycine", "test-value": 61.76}
{"compound": "CC(C)CN1CCC[C@]12CN([C@H](C(N)=O)[C@@H](C)O)C2=O [Compound A]", "endpoint": "% 1 mM Glycine", "test-value": 47.42}
{"compound": "C[C@@H](O)[C@@H](C(N)=O)N1C[C@@]2(CCCN2C(=O)OC(C)(C)C)C1=O [Compound X]", "endpoint": "% 1 mM Glycine", "test-value": 41.04}

###

method-notes: Bioavailability and CSF/brain/plasma distribution after PO dosing
Type: in vivo, Sprague Dawley rats
condition-details: Sprague Dawley, rat, brain/plasma; PO administration (Compound A 10 mg/kg); read-out: Brain/plasma ratio

{"test-smiles": "CC(C)CN1CCC[C@]12CN([C@H](C(N)=O)[C@@H](C)O)C2=O", "Kp": 0.19}
{"test-smiles": "CC(C)CN1CCC[C@@]12CN([C@H](C(N)=O)[C@@H](C)O)C2=O", "Kp": 0.18}

###

In this section we review reported fraction unbound values for a set of molecules.
method-notes: Plasma protein binding, rat
Assay type: in vitro ADME
condition-details: read-out: plasma protein binding (% bound) (converted)
Description: Unbound drug concentration in the brain was also investigated, and plasma protein binding assays were conducted. The following table (% bound) indicates results for Compound A. Unbound drug concentration in the brain was also investigated, and plasma protein binding assays were conducted. The following table (% bound) indicates results for Compound B.
endpoint: fraction unbound

{"test-smiles": "CC(C)CN1CCC[C@]12CN([C@H](C(N)=O)[C@@H](C)O)C2=O", "endpoint": "fraction unbound", "test-value": 0.701}
{"test-smiles": "CC(C)CN1CCC[C@@]12CN([C@H](C(N)=O)[C@@H](C)O)C2=O", "endpoint": "fraction unbound", "test-value": 0.802}

###

assayed-target: NMDAR2C (Homo sapiens)
Sequence (Q14957 20-1233, species assumed, other chains not shown): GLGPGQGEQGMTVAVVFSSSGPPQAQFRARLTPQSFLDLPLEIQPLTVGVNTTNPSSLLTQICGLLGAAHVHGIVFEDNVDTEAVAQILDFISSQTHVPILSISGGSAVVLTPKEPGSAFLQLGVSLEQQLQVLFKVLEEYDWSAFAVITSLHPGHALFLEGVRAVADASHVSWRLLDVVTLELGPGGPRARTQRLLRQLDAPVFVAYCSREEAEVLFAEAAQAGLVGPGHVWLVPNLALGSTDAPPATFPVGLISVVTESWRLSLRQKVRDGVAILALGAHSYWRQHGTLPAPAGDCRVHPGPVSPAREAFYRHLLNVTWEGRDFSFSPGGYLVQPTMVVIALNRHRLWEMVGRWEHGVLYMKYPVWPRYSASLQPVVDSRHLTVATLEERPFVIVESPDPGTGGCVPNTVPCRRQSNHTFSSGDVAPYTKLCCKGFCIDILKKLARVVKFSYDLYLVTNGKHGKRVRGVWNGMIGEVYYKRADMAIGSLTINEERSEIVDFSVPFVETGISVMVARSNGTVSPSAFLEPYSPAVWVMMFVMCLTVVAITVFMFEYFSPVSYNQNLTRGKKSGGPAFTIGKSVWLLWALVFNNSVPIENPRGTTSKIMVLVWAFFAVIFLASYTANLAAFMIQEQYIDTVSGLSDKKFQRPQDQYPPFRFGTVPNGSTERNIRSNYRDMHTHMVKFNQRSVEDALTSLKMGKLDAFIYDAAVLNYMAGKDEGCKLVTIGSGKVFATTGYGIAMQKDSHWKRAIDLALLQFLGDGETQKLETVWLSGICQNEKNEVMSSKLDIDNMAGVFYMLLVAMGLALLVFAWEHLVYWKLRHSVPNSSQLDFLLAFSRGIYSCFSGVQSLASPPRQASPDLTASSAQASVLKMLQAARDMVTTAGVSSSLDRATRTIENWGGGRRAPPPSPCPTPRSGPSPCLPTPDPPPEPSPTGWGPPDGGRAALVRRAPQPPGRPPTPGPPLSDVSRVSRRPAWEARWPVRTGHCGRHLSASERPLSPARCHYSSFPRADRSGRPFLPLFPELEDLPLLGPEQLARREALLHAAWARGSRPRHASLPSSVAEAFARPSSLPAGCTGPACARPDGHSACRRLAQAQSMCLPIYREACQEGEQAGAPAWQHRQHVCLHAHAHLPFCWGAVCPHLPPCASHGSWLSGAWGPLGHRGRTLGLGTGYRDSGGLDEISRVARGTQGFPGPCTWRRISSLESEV
method-notes: Potentiation of [3H]MK-801 binding, NMDAR2C
Parameters: species or system rat
condition-details: NMDAR2C binding profile; relative to 1 mM glycine
In this section we review reported % 1 mM Glycine values for a set of compounds.

{"test-smiles": "C[C@@H](O)[C@@H](C(N)=O)N1C[C@]2(CCCN2C(=O)OC(C)(C)C)C1=O", "assayed-target": "NMDAR2C (Homo sapiens)", "reading-unit": "%", "% 1 mM Glycine": 67.5}
{"test-smiles": "CC(C)C(=O)N1CCC[C@@]12CN([C@H](C(N)=O)[C@@H](C)O)C2=O", "assayed-target": "NMDAR2C (Homo sapiens)", "reading-unit": "%", "% 1 mM Glycine": 47.76}
{"test-smiles": "CC(C)CN1CCC[C@@]12CN([C@H](C(N)=O)[C@@H](C)O)C2=O", "assayed-target": "NMDAR2C (Homo sapiens)", "reading-unit": "%", "% 1 mM Glycine": 85.37}
{"test-smiles": "C[C@@H](O)[C@@H](C(N)=O)N1C[C@@]2(CCCN2C(=O)OC(C)(C)C)C1=O", "assayed-target": "NMDAR2C (Homo sapiens)", "reading-unit": "%", "% 1 mM Glycine": 59.73}
{"test-smiles": "CC(C)C(=O)N1CCC[C@]12CN([C@H](C(N)=O)[C@@H](C)O)C2=O", "assayed-target": "NMDAR2C (Homo sapiens)", "reading-unit": "%", "% 1 mM Glycine": 64.24}
{"test-smiles": "CC(C)CN1CCC[C@]12CN([C@H](C(N)=O)[C@@H](C)O)C2=O", "assayed-target": "NMDAR2C (Homo sapiens)", "reading-unit": "%", "% 1 mM Glycine": 66.21}
